target-or-system: human orexin 1 receptor (Homo sapiens)
Sequence (O43613 whole entry): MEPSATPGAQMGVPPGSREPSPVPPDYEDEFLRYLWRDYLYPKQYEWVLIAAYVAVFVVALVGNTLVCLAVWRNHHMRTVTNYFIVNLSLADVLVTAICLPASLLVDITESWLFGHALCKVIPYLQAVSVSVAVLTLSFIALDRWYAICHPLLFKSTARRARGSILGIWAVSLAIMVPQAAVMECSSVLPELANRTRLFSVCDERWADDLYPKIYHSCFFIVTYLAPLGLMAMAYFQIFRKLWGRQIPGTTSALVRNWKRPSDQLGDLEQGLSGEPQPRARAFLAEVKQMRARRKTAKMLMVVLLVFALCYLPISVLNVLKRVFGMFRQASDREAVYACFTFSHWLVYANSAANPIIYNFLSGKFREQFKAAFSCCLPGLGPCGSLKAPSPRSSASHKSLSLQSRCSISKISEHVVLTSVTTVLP
method-summary: Calcium accumulation in cells (FLIPR), antagonism of orexin A, human orexin 1 receptor
measurement-setup: calcium accumulation, antagonism of orexin A, Cheng-Prusoff corrected; read-out: FLIPR hOx1R Ki
Description: Calcium Accumulation in Cells (FLIPR): Cells expressing human orexin 1 or human orexin 2 receptors, were seeded at 8,000 cells/well in 384 well black-walled clear bottom, poly-D-lysine coated plates. […] On the day of the experiment, the cells seeded in black plates were treated with assay buffer containing the Ca^2+ sensitive fluorescent dye Fluo-4-AM (2 μM), and probenecid (0.1 mM). […] Fluorescence measurements were then continued every 1 S for 120 S followed by every 4 S for 240 S. […]
parameter-measured: Ki (nM)
Unit nM implied. Number only.

Query: Give the measured Ki of Cc1ccc(C)c(CN2C(=O)COCC23CCN(c2cnc4ccccc4n2)CC3)c1 [Example 8.7] .
Response: 274

Query: Give the measured Ki of COc1cc(C)nc(N2CCC3(CCN(Cc4c[nH]c5ccccc45)C3=O)CC2)n1 [Example 3.18] .
Response: 1240

Query: Give the measured Ki of COc1cccc(-c2ocnc2CN2CCNC3(CCN(c4nccc(OC)n4)CC3)C2=O)c1 [Example 1.12] .
Response: 621

Query: Give the measured Ki of COc1cc(C)nc(N2CCC3(CCN(Cc4cccc5[nH]ccc45)C3=O)C2)n1 (centres unmarked) [Example 5.10] .
Response: 1340

Query: Give the measured Ki of COc1ccnc(N2CCC3(CCN(Cc4ccccc4-c4nc(C)no4)C3=O)C2)n1 (centres unmarked) [Example 5.13] .
Response: 4160

Query: Give the measured Ki of O=C1CCC2(CCN(c3cnc4ccccc4n3)CC2)N1Cc1cccc2[nH]ccc12 [Example 8.1] .
Response: 78

Query: Give the measured Ki of COc1ccc2[nH]cc(CN3CCOC4(CCN(c5nc(C)cc(C)n5)CC4)C3=O)c2c1 [Example 2.7] .
Response: 258

Query: Give the measured Ki of Cc1cc(C)nc(N2CCC3(CC2)NCCN(Cc2nn(C)cc2-c2cccc(OC(C)C)c2)C3=O)n1 [Example 1.47] .
Response: 135
